biological target: soluble HLA-A*0201 molecules (Homo sapiens, UniProt P04439, D140Y/D185E/D98H/E176V/E277Q/G131W/G231S/I119V/I121R/I166T/I218V/L300P/L318F/N151K/N90K/P208A/P217A/Q86G/Q94H/R138H/R169H/T345S); test: Binding affinity of synthetic peptides to soluble HLA-A*0201 molecules
Peptide text beside a SMILES is read from it.
Readout name: IC50 (nM)
Give the value in nM but do not write nM after it.

Consider CC(C)C[C@H](NC(=O)[C@@H](N)Cc1ccccc1)C(=O)N[C@H](C(=O)N[C@@H](CS)C(=O)N[C@H](C(=O)N[C@@H](CC(=O)O)C(=O)N[C@@H](CCCNC(=N)N)C(=O)N[C@@H](CO)C(=O)N[C@H](C(=O)O)C(C)C)[C@@H](C)O)[C@@H](C)O [VP11/12_66–74] (H-FLTCTDRSV-OH) . Its measured IC50 is 83

Reported IC50 ( CC[C@H](C)[C@H](NC(=O)[C@@H](N)CCCNC(=N)N)C(=O)N[C@@H](CCC(N)=O)C(=O)N[C@@H](CCC(N)=O)C(=O)N[C@@H](Cc1ccc(O)cc1)C(=O)N[C@@H](CCSC)C(=O)N[C@@H](Cc1ccccc1)C(=O)N[C@@H](Cc1ccccc1)C(=O)N[C@@H](CCSC)C(=O)O [VP11/12_197–205] (H-RIQQYMFFM-OH) ) = 81

According to the records, this compound CC(C)C[C@H](NC(=O)[C@H](CCCCN)NC(=O)[C@@H](NC(=O)[C@H](CC(C)C)NC(=O)[C@H](CC(C)C)NC(=O)[C@H](C)NC(=O)[C@H](CO)NC(=O)[C@H](CC(C)C)NC(=O)[C@H](C)N)[C@@H](C)O)C(=O)O [VP11/12_702–710] (H-ALSALLTKL-OH) displays IC50 of 313

The reported IC50 of the compound CC(C)C[C@H](NC(=O)[C@H](CC(C)C)NC(=O)[C@H](CCC(=O)O)NC(=O)[C@H](CC(N)=O)NC(=O)[C@H](CC(C)C)NC(=O)[C@@H](N)CCCNC(=N)N)C(=O)N[C@@H](C)C(=O)N[C@@H](Cc1ccc(O)cc1)C(=O)N[C@H](C(=O)O)C(C)C [VP11/12_220–228] (H-RLNELLAYV-OH) was 709

Noted for CSCC[C@H](N)C(=O)N[C@@H](CC(C)C)C(=O)N[C@@H](Cc1c[nH]c2ccccc12)C(=O)N[C@H](C(=O)N[C@H](C(=O)N[C@@H](CC(=O)O)C(=O)N[C@@H](CCCCN)C(=O)N[C@@H](Cc1c[nH]cn1)C(=O)N[C@H](C(=O)O)C(C)C)[C@@H](C)O)[C@@H](C)O [VP11/12_238–246] (H-MLWTTDKHV-OH) : its IC50 reads 1290

* * *

Please go through the items and note down their Kd.
biological target: soluble HLA-A*0201 molecules (Homo sapiens, UniProt P04439, D140Y/D185E/D98H/E176V/E277Q/G131W/G231S/I119V/I121R/I166T/I218V/L300P/L318F/N151K/N90K/P208A/P217A/Q86G/Q94H/R138H/R169H/T345S); experiment: Binding affinity of synthetic peptides to soluble HLA-A*0201 molecules
Peptide text beside a SMILES is read from it.

Record summary for CC[C@H](C)[C@H](NC(=O)[C@@H](N)CCCNC(=N)N)C(=O)N[C@@H](CCC(N)=O)C(=O)N[C@@H](CCC(N)=O)C(=O)N[C@@H](Cc1ccc(O)cc1)C(=O)N[C@@H](CCSC)C(=O)N[C@@H](Cc1ccccc1)C(=O)N[C@@H](Cc1ccccc1)C(=O)N[C@@H](CCSC)C(=O)O [VP11/12_197–205] (H-RIQQYMFFM-OH) : reported Kd = 83 nM

// sample CC(C)C[C@H](NC(=O)[C@H](CCCCN)NC(=O)[C@@H](NC(=O)[C@H](CC(C)C)NC(=O)[C@H](CC(C)C)NC(=O)[C@H](C)NC(=O)[C@H](CO)NC(=O)[C@H](CC(C)C)NC(=O)[C@H](C)N)[C@@H](C)O)C(=O)O [VP11/12_702–710] (H-ALSALLTKL-OH) , its Kd was 313 nM

Note to self: Kd recorded for CC(C)C[C@H](NC(=O)[C@H](CC(C)C)NC(=O)[C@H](CCC(=O)O)NC(=O)[C@H](CC(N)=O)NC(=O)[C@H](CC(C)C)NC(=O)[C@@H](N)CCCNC(=N)N)C(=O)N[C@@H](C)C(=O)N[C@@H](Cc1ccc(O)cc1)C(=O)N[C@H](C(=O)O)C(C)C [VP11/12_220–228] (H-RLNELLAYV-OH) was 709 nM

The compound listed as CC(C)C[C@H](NC(=O)[C@@H](N)Cc1ccccc1)C(=O)N[C@H](C(=O)N[C@@H](CS)C(=O)N[C@H](C(=O)N[C@@H](CC(=O)O)C(=O)N[C@@H](CCCNC(=N)N)C(=O)N[C@@H](CO)C(=O)N[C@H](C(=O)O)C(C)C)[C@@H](C)O)[C@@H](C)O [VP11/12_66–74] (H-FLTCTDRSV-OH) shows Kd equal to 81 nM
